Tgt: PDE7 (Homo sapiens)
Sequence (Q13946 whole entry): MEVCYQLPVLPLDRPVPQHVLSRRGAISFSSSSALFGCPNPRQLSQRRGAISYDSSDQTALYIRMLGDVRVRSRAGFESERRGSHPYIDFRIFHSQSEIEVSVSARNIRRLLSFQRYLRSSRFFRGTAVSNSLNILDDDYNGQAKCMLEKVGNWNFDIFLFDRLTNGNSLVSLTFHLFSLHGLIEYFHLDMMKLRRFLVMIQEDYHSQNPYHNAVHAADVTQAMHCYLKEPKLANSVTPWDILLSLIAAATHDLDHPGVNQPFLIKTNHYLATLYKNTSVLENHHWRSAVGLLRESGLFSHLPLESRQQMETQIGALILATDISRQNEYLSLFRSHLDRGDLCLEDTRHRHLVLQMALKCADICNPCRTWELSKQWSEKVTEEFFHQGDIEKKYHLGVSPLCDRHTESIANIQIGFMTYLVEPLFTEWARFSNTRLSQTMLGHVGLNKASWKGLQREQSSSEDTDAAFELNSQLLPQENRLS
Assay remarks: In vitro enzyme assay: PDE7 inhibitory activity
Reported conditions: PDE7 fraction from HuT78 cells, 30 minutes at room temperature
pIC50: −log10 of the molar value.
Reported endpoint: pIC50

Please review the following examples before continuing.
Mol smiles	pIC50
COc1ccc2c(c1)CC(C)(C)N/C2=C\C(=O)C1CCCCC1	6.57
COc1ccccc1C(=O)/C=C1\NC(C)(C)Cc2ccc(Cl)cc21	6.01
CC1(C)Cc2ccc(Cl)cc2/C(=C/C(=O)C23CC4CC(CC(C4)C2)C3)N1	6.12
COc1ccccc1C(=O)/C=C1\NC(C)(C)Cc2cc(Cl)ccc21	5.96
COc1ccc2c(c1)/C(=C/C(=O)c1ccc(C#N)cc1)NC(C)(C)C2	6.82
COc1ccc2c(c1)/C(=C/C(=O)c1ccc(N)cc1)NC2(C)C	7.64

[P] COc1ccc2c(c1)/C(=C/C(=O)c1ccc(NC(N)=O)cc1)NC(C)(C)C2
[Q] CNc1ccc2c(c1)/C(=C/C(=O)c1ccc(C#N)cc1)NC(C)(C)C2
Challenge: Could you check which of P and Q has a smaller value for pIC50? Returns: label corresponding to the selected item.
Response given: Q
(Q: 6.43, P: 7.57)
